- Tested on: Enterobacter cloacae
- protocol_text: Inhibition zone assay (agar plate)
- Type: cell-based
- assay_context: agar plate, 50 nanomoles/well, 3 mm wells
Residues, ends and D or L forms follow the SMILES beside them.
outcome_measure: inhibition zone diameter (number of plus signs)

[[record]]
molecule = "CC[C@H](C)[C@H](NC(=O)[C@H](Cc1ccc(O)cc1)NC(=O)[C@@H](NC(=O)[C@@H]1CCCN1C(=O)[C@H](CCCNC(=N)N)NC(=O)[C@@H](N)CC(N)=O)C(C)C)C(=O)N1CCC[C@H]1C(=O)N1CCC[C@H]1C(=O)N1CCC[C@H]1C(=O)N[C@@H](CCCNC(=N)N)C(=O)N1CCC[C@H]1C(=O)N1CCC[C@H]1C(=O)N[C@@H](Cc1c[nH]cn1)C(=O)N1CCC[C@H]1C(=O)N[C@@H](CCCNC(=N)N)C(=O)N[C@@H](CC(C)C)C(=O)O [Bb-A] (H-NRPVYIPPPRPPHPRL-OH)"
meas_value = "+++ ((+++) 10-14 mm)"

[[record]]
molecule = "CC[C@H](C)[C@H](NC(=O)[C@@H]1CCCN1C(=O)[C@H](C)NC(=O)[C@@H]1CCCN1C(=O)[C@H](CCCNC(=N)N)NC(=O)[C@@H]1CCCN1C(=O)[C@H](CCCNC(=N)N)NC(=O)[C@@H](N)CC(N)=O)C(=O)N[C@@H](CCC(N)=O)C(=O)N1CCC[C@H]1C(=O)N[C@@H](CCCNC(=N)N)C(=O)N1CCC[C@H]1C(=O)N1CCC[C@H]1C(=O)N[C@@H](Cc1c[nH]cn1)C(=O)N1CCC[C@H]1C(=O)N[C@@H](CCCNC(=N)N)C(=O)N[C@@H](CC(C)C)C(=O)O [Cd 1-] (H-NRPRPAPIQPRPPHPRL-OH)"
meas_value = "+++ ((+++) 10-14 mm)"


====

- System: Escherichia coli (ATCC11775)
- protocol_text: Inhibition zone assay (agar plate)
- Assay type: cell-based
- assay_context: agar plate, 50 nanomoles/well, 3 mm wells
Residues, ends and D or L forms follow the SMILES beside them.
outcome_measure: inhibition zone diameter (number of plus signs)

Solved cases (6 shown):
[[record]]
compound = "CC[C@H](C)[C@H](NC(=O)[C@@H]1CCCN1C(=O)[C@H](C)NC(=O)[C@@H]1CCCN1C(=O)[C@H](CCCNC(=N)N)NC(=O)[C@@H]1CCCN1C(=O)[C@H](CCCCN)NC(=O)[C@H](CO)NC(=O)[C@@H]1CCCN1C(=O)[C@H](CCCCN)NC(=O)CN)C(=O)N[C@@H](CCCCN)C(=O)N1CCC[C@H]1C(=O)N[C@@H](CCCNC(=N)N)C(=O)N1CCC[C@H]1C(=O)N1CCC[C@H]1C(=O)N[C@@H](Cc1c[nH]cn1)C(=O)N1CCC[C@H]1C(=O)N[C@@H](CCCNC(=N)N)C(=O)N[C@@H](CC(C)C)C(=O)O [Cd 3+] (H-GKPSKPRPAPIKPRPPHPRL-OH)"
meas_value = "++ ((++) 7-9 mm)"

[[record]]
compound = "CC(C)C[C@H](NC(=O)[C@H](CCCNC(=N)N)NC(=O)[C@@H]1CCCN1C(=O)[C@H](Cc1c[nH]cn1)NC(=O)[C@@H]1CCCN1C(=O)[C@@H]1CCCN1C(=O)[C@H](CCCNC(=N)N)NC(=O)[C@@H]1CCCN1C(=O)[C@@H]1CCCN1C(=O)[C@@H](NC(=O)[C@H](CCC(N)=O)NC(=O)[C@H](CCC(N)=O)NC(=O)[C@@H]1CCCN1C(=O)[C@H](CCCNC(=N)N)NC(=O)[C@@H]1CCCN1C(=O)[C@H](CCCCN)NC(=O)[C@@H](N)CC(N)=O)C(C)C)C(=O)O [Yj -S] (H-NKPRPQQVPPRPPHPRL-OH)"
meas_value = "+++ ((+++) 10-14 mm)"

[[record]]
compound = "CC[C@H](C)[C@H](NC(=O)[C@@H]1CCCN1C(=O)[C@H](C)NC(=O)[C@@H]1CCCN1C(=O)[C@H](CCCNC(=N)N)NC(=O)[C@@H]1CCCN1C(=O)[C@H](CCCCN)NC(=O)[C@@H](N)CO)C(=O)N[C@@H](CCCCN)C(=O)N1CCC[C@H]1C(=O)N[C@@H](CCCNC(=N)N)C(=O)N1CCC[C@H]1C(=O)N1CCC[C@H]1C(=O)N[C@@H](Cc1c[nH]cn1)C(=O)N1CCC[C@H]1C(=O)N[C@@H](CCCNC(=N)N)C(=O)N[C@@H](CC(C)C)C(=O)O [Cd 3-] (H-SKPRPAPIKPRPPHPRL-OH)"
meas_value = "++ ((++) 7-9 mm)"

[[record]]
compound = "CC[C@H](C)[C@H](NC(=O)[C@@H]1CCCN1C(=O)[C@H](C)NC(=O)[C@@H]1CCCN1C(=O)[C@H](CCCNC(=N)N)NC(=O)[C@@H]1CCCN1C(=O)[C@H](CCCNC(=N)N)NC(=O)[C@@H](N)CC(N)=O)C(=O)N[C@@H](CCC(N)=O)C(=O)N1CCC[C@H]1C(=O)N[C@@H](CCCNC(=N)N)C(=O)N1CCC[C@H]1C(=O)N1CCC[C@H]1C(=O)N[C@@H](Cc1c[nH]cn1)C(=O)N1CCC[C@H]1C(=O)N[C@@H](CCCNC(=N)N)C(=O)N[C@@H](CC(C)C)C(=O)O [Cd 1-] (H-NRPRPAPIQPRPPHPRL-OH)"
meas_value = "+++ ((+++) 10-14 mm)"

[[record]]
compound = "CC(C)C[C@H](NC(=O)[C@H](CCCNC(=N)N)NC(=O)[C@@H]1CCCN1C(=O)[C@H](Cc1c[nH]cn1)NC(=O)[C@@H]1CCCN1C(=O)[C@@H]1CCCN1C(=O)[C@H](CCCNC(=N)N)NC(=O)[C@@H]1CCCN1C(=O)[C@@H]1CCCN1C(=O)[C@@H](NC(=O)[C@H](CCC(N)=O)NC(=O)[C@H](CCC(N)=O)NC(=O)[C@@H]1CCCN1C(=O)[C@H](CCCNC(=N)N)NC(=O)[C@@H]1CCCN1C(=O)[C@H](CCCCN)NC(=O)[C@H](CC(N)=O)NC(=O)[C@@H](N)CO)C(C)C)C(=O)O [Yj +S] (H-SNKPRPQQVPPRPPHPRL-OH)"
meas_value = "+++ ((+++) 10-14 mm)"

[[record]]
compound = "CC(C)C[C@H](NC(=O)[C@H](CCCNC(=N)N)NC(=O)[C@@H]1CCCN1C(=O)[C@H](Cc1c[nH]cn1)NC(=O)[C@@H]1CCCN1C(=O)[C@@H]1CCCN1C(=O)[C@H](CCCNC(=N)N)NC(=O)[C@@H]1CCCN1C(=O)[C@@H]1CCCN1C(=O)[C@@H](NC(=O)[C@H](CCC(N)=O)NC(=O)[C@H](CCC(N)=O)NC(=O)[C@@H]1CCCN1C(=O)[C@H](CCCNC(=N)N)NC(=O)[C@@H]1CCCN1C(=O)[C@H](CCCCN)NC(=O)CN)C(C)C)C(=O)O [Ho +, G K P R P Q Q V P P R P P H P R L] (H-GKPRPQQVPPRPPHPRL-OH)"
meas_value = "+++ ((+++) 10-14 mm)"


Turning now to a further compound:
Problem: // inhibition zone diameter (number of plus signs) lookup, key: CC(C)C[C@H](NC(=O)[C@H](CCCNC(=N)N)NC(=O)[C@@H]1CCCN1C(=O)[C@H](Cc1c[nH]cn1)NC(=O)[C@@H]1CCCN1C(=O)[C@@H]1CCCN1C(=O)[C@H](CCCNC(=N)N)NC(=O)[C@@H]1CCCN1C(=O)[C@@H]1CCCN1C(=O)[C@@H](NC(=O)[C@H](CCC(N)=O)NC(=O)[C@H](CCC(N)=O)NC(=O)[C@@H]1CCCN1C(=O)[C@@H](N)CCCNC(=N)N)C(C)C)C(=O)O [Ho -] (H-RPQQVPPRPPHPRL-OH)
Result: +++ ((+++) 10-14 mm)

====

- System: Yersinia enterocolitica
- protocol_text: Inhibition zone assay (agar plate)
- Assay type: cell-based
- assay_context: 50 nanomoles/well, 3 mm wells
Residues, ends and D or L forms follow the SMILES beside them.
outcome_measure: inhibition zone diameter (number of plus signs)

[[record]]
compound = "CC[C@H](C)[C@H](NC(=O)[C@H](Cc1ccc(O)cc1)NC(=O)[C@@H](NC(=O)[C@@H]1CCCN1C(=O)[C@H](CCCNC(=N)N)NC(=O)[C@@H](N)CC(N)=O)C(C)C)C(=O)N1CCC[C@H]1C(=O)N1CCC[C@H]1C(=O)N1CCC[C@H]1C(=O)N[C@@H](CCCNC(=N)N)C(=O)N1CCC[C@H]1C(=O)N1CCC[C@H]1C(=O)N[C@@H](Cc1c[nH]cn1)C(=O)N1CCC[C@H]1C(=O)N[C@@H](CCCNC(=N)N)C(=O)N[C@@H](CC(C)C)C(=O)O [Bb-A] (H-NRPVYIPPPRPPHPRL-OH)"
meas_value = "+++ ((+++) 10-14 mm)"

[[record]]
compound = "CC[C@H](C)[C@H](NC(=O)[C@@H]1CCCN1C(=O)[C@H](C)NC(=O)[C@@H]1CCCN1C(=O)[C@H](CCCNC(=N)N)NC(=O)[C@@H]1CCCN1C(=O)[C@H](CCCNC(=N)N)NC(=O)[C@@H](N)CC(N)=O)C(=O)N[C@@H](CCC(N)=O)C(=O)N1CCC[C@H]1C(=O)N[C@@H](CCCNC(=N)N)C(=O)N1CCC[C@H]1C(=O)N1CCC[C@H]1C(=O)N[C@@H](Cc1c[nH]cn1)C(=O)N1CCC[C@H]1C(=O)N[C@@H](CCCNC(=N)N)C(=O)N[C@@H](CC(C)C)C(=O)O [Cd 1-] (H-NRPRPAPIQPRPPHPRL-OH)"
meas_value = "++ ((++) 7-9 mm)"

[[record]]
compound = "CC[C@H](C)[C@H](NC(=O)[C@H](Cc1ccc(O)cc1)NC(=O)[C@@H](NC(=O)[C@@H]1CCCN1C(=O)[C@H](CCCNC(=N)N)NC(=O)[C@H](CC(N)=O)NC(=O)[C@H](C)N)C(C)C)C(=O)N1CCC[C@H]1C(=O)N1CCC[C@H]1C(=O)N1CCC[C@H]1C(=O)N[C@@H](CCCNC(=N)N)C(=O)N1CCC[C@H]1C(=O)N1CCC[C@H]1C(=O)N[C@@H](Cc1c[nH]cn1)C(=O)N1CCC[C@H]1C(=O)N[C@@H](CCCNC(=N)N)C(=O)N[C@@H](CC(C)C)C(=O)O [Bb+A] (H-ANRPVYIPPPRPPHPRL-OH)"
meas_value = "+++ ((+++) 10-14 mm)"

[[record]]
compound = "CC(C)C[C@H](NC(=O)[C@H](CCCNC(=N)N)NC(=O)[C@@H]1CCCN1C(=O)[C@H](Cc1c[nH]cn1)NC(=O)[C@@H]1CCCN1C(=O)[C@@H]1CCCN1C(=O)[C@H](CCCNC(=N)N)NC(=O)[C@@H]1CCCN1C(=O)[C@@H]1CCCN1C(=O)[C@@H](NC(=O)[C@H](CCC(N)=O)NC(=O)[C@H](CCC(N)=O)NC(=O)[C@@H]1CCCN1C(=O)[C@H](CCCNC(=N)N)NC(=O)[C@@H]1CCCN1C(=O)[C@H](CCCCN)NC(=O)[C@@H](N)CC(N)=O)C(C)C)C(=O)O [Yj -S] (H-NKPRPQQVPPRPPHPRL-OH)"
meas_value = "++ ((++) 7-9 mm)"

